# assay method text: M. tuberculosis H37Rv growth inhibitors, H37Rv strain (AID 1626);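 note: bacteria incubated seven days before Alamar blue readout; 0% = bacteria only wells and 100% = bacteria with antibiotic wells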
# recorded conditions: hits give high values, concentration not given here
The campaign covered roughly 220,000 compounds. About 2,000 (0.91%) were called active. Another 2% or so got no clear call; they are omitted. The list is a sample of the results. Potency and affinity values are given separately.
assay metric: inhibition (%)

{"columns": ["compound", "readout number"],
 "data": [
  ["COc1ccc2c(c1)c1ccccc1n2C", -6.03],
  ["O=S1(=O)CCN(CCc2c[nH]c3ccccc23)CC1", 3.01],
  ["COc1ccc(NC(=O)C/C(C)=N/NC(=O)C(=O)NC(C)C)c(OC)c1", -3.77],
  ["COc1cccc(CNC(=O)c2ccc3nc[nH]c3c2)c1", -1.98],
  ["COc1ccc(CN2C(=O)c3oc4ccccc4c(=O)c3C2c2ccc(O)c(OC)c2)cc1 (centres undefined)", -7.03],
  ["O=C(NCCN1CCOCC1)c1ccc(Cl)cc1[N+](=O)[O-]", -10.2],
  ["On1c(-c2ccccc2Cl)nc2ccccc21", 12.4],
  ["CCn1c(=O)cc(SCC(=O)N2CCN(c3ccccc3OC)CC2)c2ccccc21", -4.03],
  ["O=[N+]([O-])c1cc(CN2CCCC2)c2cccnc2c1O", -5.59],
  ["COC(=O)CCC(=O)Nc1ccc(Cl)c(Cl)c1", -2.69],
  ["CCOC(=O)N1CCN(C(=O)CN(c2ccc(OC)cc2)S(C)(=O)=O)CC1", -8.65],
  ["COc1ccc(NC(=O)COC(=O)CCCOc2ccc(Cl)cc2Cl)cc1", 12.7],
  ["O=C(NCc1cccnc1)/C(=C/c1ccc(-c2cccc(Cl)c2)o1)S(=O)(=O)c1ccccc1", 56.8],
  ["O=C(NCc1cccnc1)c1ccc(-c2ccc(Cl)cc2)o1", -1.29],
  ["O=C(COC(=O)CCCOc1ccc(Cl)cc1Cl)Nc1cccc(Cl)c1", 6.33],
  ["Cc1c(Cl)cccc1S(=O)(=O)N1CCC(C(=O)NNC(=O)C2CC2)CC1", 0.53],
  ["CCc1[nH]c(=S)c(C#N)c2c1CCCC2", -2.7],
  ["Cc1ccccc1N(CC(=O)Nc1ccccc1C(=O)O)S(C)(=O)=O", -1.04],
  ["C=CCC(=O)OCCCCCCOc1ccc(C(=O)O)cc1", -13.9],
  ["CC(=O)N1NC(=Nc2ccccc2)SC1(C)C", -6.07],
  ["Nc1ncccc1OCc1cccc(C(F)(F)F)c1", 16.6],
  ["Cc1cc(Cl)ccc1OCCCC(=O)NN", -1.79],
  ["O=C(NCCN1CCOCC1)c1ccccc1[N+](=O)[O-]", 1.9],
  ["CCOC(=O)/C=C/C(=O)OCC(=O)Nc1ccc(OC)c(Cl)c1", 3.02]
]}
